Numbers sourced from paper PMC9482650.

study.target: T1, DFNB31_2, Q9P202
T1 sequence (Q9P202 274-371, limits assumed, looked up): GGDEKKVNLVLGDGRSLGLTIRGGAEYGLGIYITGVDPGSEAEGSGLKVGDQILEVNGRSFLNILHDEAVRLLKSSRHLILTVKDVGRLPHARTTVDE
method.notes: holdup assay
Set-up: key: below the threshold = too weak to quantify, mostly under pKd 3.1 to 4
particulars: plain residues with an end cap or a label only (N-terminal biotin on a linker: ttds)
This listing pairs binders with measured pKd.
endpoint.label: pKd

PVRVCEETSL [OTULIN, Q96BN8]	3.58
RLPKIKETTV [FRMPD4, Q14CM0]	4.12
VDFPPKESSL [ACVR2A, P27037]	3.46
EMDRRPATVV [PLCB4, Q15147]	3.51
